# procedure.text: Dynamic light scattering: LNP particle size and PDI
# Format: physicochemical
# condition.summary: LNP, Formulation F2, N/P 6
Record form. Attribute: Size (nm) N/P:6. Fill in for each entry.
// note: answer is a bare numeric in nm

# Size (nm) N/P:6 (compound: CCCCC/C=C\CCOC(=O)CCCCCC(=O)OCC(COC(=O)CCCCCCOC(=O)C(CCCC)CCCCCC)(COC(=O)CCCCCC(=O)OCC/C=C\CCCCC)COC(=O)CCC(CCCCCC)OC(=O)NCCN1CCCC1 (stereo not drawn) [Compound 16] ) is 82

# Size (nm) N/P:6 (compound: CCCCC/C=C\C/C=C\CCCCCCCC(=O)OCC(COC(=O)CCCCCCC/C=C\C/C=C\CCCCC)(COC(=O)CCCCCCC/C=C\C/C=C\CCCCC)COC(=O)CCC(CCCCCC)OC(=O)NCCN1CCCC1 (stereo not drawn) [Compound 2] ) is 84

# Size (nm) N/P:6 (compound: CCCCC/C=C\CCOC(=O)CCCCC(=O)OCC(COC(=O)CCCCC(=O)OCC/C=C\CCCCC)(COC(=O)CCC(CCCCCC)OC(=O)NCCN1CCCC1)COC(=O)CC12CC3CC(CC(C3)C1)C2 (stereo not drawn) [Compound 14] ) is 90
